Target: D(1A) dopamine receptor (Canis familiaris)
Assay: Ability to inhibit the binding of [3H]-SCH- 23390 to canine striatal membrane
assayReadout: Kd (pM)
Give the quantity in pM, number only.

Q. Identify the measured Kd of CN1CCc2cc(I)c(O)cc2C(c2ccc(N=[N+]=[N-])cc2)C1 (stereo unspecified) for D(1A) dopamine receptor (Canis familiaris).
A. 150
